biological target: T1, mouse Tie2-his (Sino Biological, 51087-M08H) (mouse, UniProt Q02858 23-743); test: ELISA, scFv phage on mouse TIE2 antigen, HRP anti-M13 detection
T1 construct: Bought protein; also called mTIE2-his; mTie2-his; not shown: his tag
T1 sequence (Q02858 23-743 limits assumed, stated change not applied): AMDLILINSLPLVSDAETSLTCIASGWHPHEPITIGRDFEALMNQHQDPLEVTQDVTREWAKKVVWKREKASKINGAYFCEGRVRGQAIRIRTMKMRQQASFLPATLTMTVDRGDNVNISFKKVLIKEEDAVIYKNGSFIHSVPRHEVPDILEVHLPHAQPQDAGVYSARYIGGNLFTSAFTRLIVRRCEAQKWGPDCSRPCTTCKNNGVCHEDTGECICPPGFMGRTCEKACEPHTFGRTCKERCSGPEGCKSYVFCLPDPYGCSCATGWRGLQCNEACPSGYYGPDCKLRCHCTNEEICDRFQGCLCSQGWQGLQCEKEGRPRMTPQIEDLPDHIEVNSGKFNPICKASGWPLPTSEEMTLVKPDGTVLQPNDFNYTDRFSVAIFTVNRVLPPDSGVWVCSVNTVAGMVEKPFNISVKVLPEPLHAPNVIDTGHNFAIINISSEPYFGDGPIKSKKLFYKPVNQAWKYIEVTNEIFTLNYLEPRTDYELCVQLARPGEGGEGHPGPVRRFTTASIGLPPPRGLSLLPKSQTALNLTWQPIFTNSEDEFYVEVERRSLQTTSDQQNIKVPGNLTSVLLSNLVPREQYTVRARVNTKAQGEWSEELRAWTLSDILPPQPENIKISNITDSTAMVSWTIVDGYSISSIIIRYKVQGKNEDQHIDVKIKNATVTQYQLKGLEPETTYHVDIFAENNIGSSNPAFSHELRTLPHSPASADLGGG
ENDPOINT LABEL: Mouse ELISA

**Q:** Reported Mouse ELISA for 1A9 monoclonal scFv phage (scFv) QMQLVQSEAEVKKPGASVKVSCKASGYTFNSYDIHWVRQAPGQGLEWMGVVNPPGGTGSTVYAQKFEDRLTLTTDMSTSTAYMELSSLRSEDTAVYYCARDYNRAPPTLDVWGQGTTITVSSNFMLTQPASVSGSPGQSITISCTGSSSDVGGYNYVSWYQQHPGKAPQLIIYDVTKRPSGVSNRFSGSKSGNSASLTISGLQAEDEADYYCSSYSSSTFYVFGTGTKVTVLG : what is it?
**A:** 0
